PROTOCOL_SUMMARY: Repeat once-weekly IV dose toxicokinetics in dogs
Format: in vivo
STATED_CONDITIONS: female, dog, in vivo, iv, 13.9 mg/kg, dogs F, 13.9 mg/kg once-weekly IV, Day 0
ASSAY_METRIC: AUC(0-inf) (µg·h/mL)
One number for each entry, in µg·h/mL.

Need AUC(0-inf) of CC1(C)C(=CC=C2CCCC(C=CC3=[N+](CCCCS(=O)(=O)[O-])c4ccc(S(=O)(=O)O)cc4C3(C)C)=C2Oc2ccc(CC(NC(=O)c3ccc(NCc4cnc5nc(N)[nH]c(=O)c5n4)cc3)C(=O)O)cc2)N(CCCCS(=O)(=O)O)c2ccc(S(=O)(=O)O)cc21 (stereo not shown) , thanks.
109

###

PROTOCOL_SUMMARY: Repeat once-weekly IV dose toxicokinetics in rats
Format: in vivo
STATED_CONDITIONS: male, rat, in vivo, iv, 30.8 mg/kg, rats M, 30.8 mg/kg once-weekly IV, Day 0; read-out: Vss
ASSAY_METRIC: Vd (L/kg)
Answers are plain numbers, in L/kg.

Need Vd of CC1(C)C(=CC=C2CCCC(C=CC3=[N+](CCCCS(=O)(=O)[O-])c4ccc(S(=O)(=O)O)cc4C3(C)C)=C2Oc2ccc(CC(NC(=O)c3ccc(NCc4cnc5nc(N)[nH]c(=O)c5n4)cc3)C(=O)O)cc2)N(CCCCS(=O)(=O)O)c2ccc(S(=O)(=O)O)cc21 (stereo not shown) , thanks.
1.53

###

PROTOCOL_SUMMARY: Repeat once-weekly IV dose toxicokinetics in rats
Type: in vivo
STATED_CONDITIONS: female, rat, in vivo, iv, 30.8 mg/kg, rats F, 30.8 mg/kg once-weekly IV, Day 13; read-out: T1/2 (converted)
ASSAY_METRIC: half-life
Answer by giving the amount and then stating its unit.

Need half-life of CC1(C)C(=CC=C2CCCC(C=CC3=[N+](CCCCS(=O)(=O)[O-])c4ccc(S(=O)(=O)O)cc4C3(C)C)=C2Oc2ccc(CC(NC(=O)c3ccc(NCc4cnc5nc(N)[nH]c(=O)c5n4)cc3)C(=O)O)cc2)N(CCCCS(=O)(=O)O)c2ccc(S(=O)(=O)O)cc21 (stereo not shown) , thanks.
6.06 h

###

PROTOCOL_SUMMARY: Phase 1a pharmacokinetics in healthy volunteers, single IV administration
Type: in vivo, human
STATED_CONDITIONS: human, plasma, intravenous, 0.025 mg/kg, in 20 ml 0.9% NaCl, 10- and 60-min infusion; read-out: Vz
ASSAY_METRIC: Vd (L)
Numbers only, in L.

Need Vd of CC1(C)C(=CC=C2CCCC(C=CC3=[N+](CCCCS(=O)(=O)[O-])c4ccc(S(=O)(=O)O)cc4C3(C)C)=C2Oc2ccc(CC(NC(=O)c3ccc(NCc4cnc5nc(N)[nH]c(=O)c5n4)cc3)C(=O)O)cc2)N(CCCCS(=O)(=O)O)c2ccc(S(=O)(=O)O)cc21 (stereo not shown) [pafolacianine] , thanks.
15.9

###

PROTOCOL_SUMMARY: Repeat once-weekly IV dose toxicokinetics in dogs
Format: in vivo
STATED_CONDITIONS: both sexes, dog, in vivo, intravenous, dogs, all doses and days; read-out: Mean T1/2 range
ASSAY_METRIC: half-life

Need half-life of CC1(C)C(=CC=C2CCCC(C=CC3=[N+](CCCCS(=O)(=O)[O-])c4ccc(S(=O)(=O)O)cc4C3(C)C)=C2Oc2ccc(CC(NC(=O)c3ccc(NCc4cnc5nc(N)[nH]c(=O)c5n4)cc3)C(=O)O)cc2)N(CCCCS(=O)(=O)O)c2ccc(S(=O)(=O)O)cc21 (stereo not shown) , thanks.
13 to 18 h

###

PROTOCOL_SUMMARY: Phase 1a pharmacokinetics in healthy volunteers, single IV administration
Format: in vivo, human
STATED_CONDITIONS: human, plasma, intravenous, 0.025 mg/kg, in 20 ml 0.9% NaCl, 10- and 60-min infusion
ASSAY_METRIC: Tmax (min)
Give bare numbers, in min.

Need Tmax of CC1(C)C(=CC=C2CCCC(C=CC3=[N+](CCCCS(=O)(=O)[O-])c4ccc(S(=O)(=O)O)cc4C3(C)C)=C2Oc2ccc(CC(NC(=O)c3ccc(NCc4cnc5nc(N)[nH]c(=O)c5n4)cc3)C(=O)O)cc2)N(CCCCS(=O)(=O)O)c2ccc(S(=O)(=O)O)cc21 (stereo not shown) , thanks.
45

###

PROTOCOL_SUMMARY: Repeat once-weekly IV dose toxicokinetics in dogs
Format: in vivo
STATED_CONDITIONS: male, dog, in vivo, iv, 13.9 mg/kg, dogs M, 13.9 mg/kg once-weekly IV, Day 0
ASSAY_METRIC: AUC(0-t) (ng·h/mL)
One number for each entry, in ng·h/mL.

Need AUC(0-t) of CC1(C)C(=CC=C2CCCC(C=CC3=[N+](CCCCS(=O)(=O)[O-])c4ccc(S(=O)(=O)O)cc4C3(C)C)=C2Oc2ccc(CC(NC(=O)c3ccc(NCc4cnc5nc(N)[nH]c(=O)c5n4)cc3)C(=O)O)cc2)N(CCCCS(=O)(=O)O)c2ccc(S(=O)(=O)O)cc21 (stereo not shown) , thanks.
78500

###

PROTOCOL_SUMMARY: Repeat once-weekly IV dose toxicokinetics in rats
Assay type: in vivo
STATED_CONDITIONS: male, rat, in vivo, iv, 3.1 mg/kg, rats M, 3.1 mg/kg once-weekly IV, Day 13
ASSAY_METRIC: AUC(0-inf)
Answer by giving the amount and then stating its unit.

Need AUC(0-inf) of CC1(C)C(=CC=C2CCCC(C=CC3=[N+](CCCCS(=O)(=O)[O-])c4ccc(S(=O)(=O)O)cc4C3(C)C)=C2Oc2ccc(CC(NC(=O)c3ccc(NCc4cnc5nc(N)[nH]c(=O)c5n4)cc3)C(=O)O)cc2)N(CCCCS(=O)(=O)O)c2ccc(S(=O)(=O)O)cc21 (stereo not shown) , thanks.
21 µg·h/mL

###

PROTOCOL_SUMMARY: Phase 1a pharmacokinetics in healthy volunteers, single IV administration
Type: in vivo, human
STATED_CONDITIONS: human, plasma, intravenous, 0.025 mg/kg, in 220 ml 5% dextrose, 60-min infusion; read-out: AUC0-inf
ASSAY_METRIC: AUC(0-inf) (ng·h/mL)
Numbers only, in ng·h/mL.

Need AUC(0-inf) of CC1(C)C(=CC=C2CCCC(C=CC3=[N+](CCCCS(=O)(=O)[O-])c4ccc(S(=O)(=O)O)cc4C3(C)C)=C2Oc2ccc(CC(NC(=O)c3ccc(NCc4cnc5nc(N)[nH]c(=O)c5n4)cc3)C(=O)O)cc2)N(CCCCS(=O)(=O)O)c2ccc(S(=O)(=O)O)cc21 (stereo not shown) , thanks.
63.6
